Just for reference, patent US20190100602A1 is where these values come from.

target: T1, human antithrombin (human, UniProt P01008 33-464); test: ELISA, sdAb coated, plasma 1/4, bound antithrombin probed with polyclonal anti-antithrombin; grade by OD
T1 construct: Serpin; the description says that AT consists of 432 amino acids; also called purified human antithrombin; AT
T1 sequence (P01008 33-464 limits assumed): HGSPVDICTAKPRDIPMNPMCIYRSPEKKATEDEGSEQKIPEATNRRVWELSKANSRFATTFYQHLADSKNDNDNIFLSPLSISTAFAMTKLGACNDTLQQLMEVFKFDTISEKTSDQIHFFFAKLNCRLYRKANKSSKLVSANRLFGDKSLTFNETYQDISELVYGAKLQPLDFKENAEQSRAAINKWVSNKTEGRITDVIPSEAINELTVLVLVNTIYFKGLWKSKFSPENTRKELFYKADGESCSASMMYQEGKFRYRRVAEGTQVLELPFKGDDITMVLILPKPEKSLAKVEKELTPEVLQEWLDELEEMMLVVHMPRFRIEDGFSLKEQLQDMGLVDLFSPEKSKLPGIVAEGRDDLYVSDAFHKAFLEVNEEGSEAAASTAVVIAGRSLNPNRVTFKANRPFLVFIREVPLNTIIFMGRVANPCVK
Listing of recorded OD by entry.
measured.parameter: OD

>>> endpoint_value("KB-AT-003 (VHH, Monovalent anti-antithrombin single-domain antibody; also called sdAb KB-AT-003) VHH: QVQLVQSGGGLVQPGGSLRLSCAASALTFSSRAWAWYRQAPGKQRELVASITGGGTTNYADSVKGRFTISRDNAKNTVYLQMNSLKPEDTAVHYCNGYRYTYAWGQGTQVTVSS")
"≥ 0.5 od"
>>> endpoint_value("KB-AT-007 (VHH, Monovalent anti-antithrombin single-domain antibody; same CDRs as KB-AT-001; also called sdAb KB-AT-007) VHH: QVQLQQSGGGLVQAGGSLRLSCAASGRTFRNYVMGWFRQAPGKDPEFIAGINRSGAITYYGDSVKGRFTISRDNAKNTVSLQMNSLEPEDTAVYYCAAGETTWSIRRDDYDYWGQGTQVTVSS")
"0.1 to 0.5 od"
